Exercise: for every item that follows, state its recorded Activity.
experimental-system: Muscarinic acetylcholine receptor M5 (Homo sapiens)
Sequence (whole entry): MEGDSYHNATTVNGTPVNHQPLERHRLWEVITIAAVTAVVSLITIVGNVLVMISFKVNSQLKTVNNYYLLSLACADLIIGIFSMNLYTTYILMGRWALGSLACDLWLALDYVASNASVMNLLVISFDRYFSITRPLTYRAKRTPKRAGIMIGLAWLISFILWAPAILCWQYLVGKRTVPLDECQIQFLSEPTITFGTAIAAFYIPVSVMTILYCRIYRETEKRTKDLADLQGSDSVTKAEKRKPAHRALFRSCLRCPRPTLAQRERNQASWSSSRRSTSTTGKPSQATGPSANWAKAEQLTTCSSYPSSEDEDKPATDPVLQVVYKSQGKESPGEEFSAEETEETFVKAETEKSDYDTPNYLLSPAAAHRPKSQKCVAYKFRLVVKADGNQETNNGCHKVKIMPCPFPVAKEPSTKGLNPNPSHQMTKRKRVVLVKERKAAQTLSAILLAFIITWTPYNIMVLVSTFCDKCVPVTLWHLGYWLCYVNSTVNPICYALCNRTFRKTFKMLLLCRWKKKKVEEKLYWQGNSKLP
assay-details: Antagonist activity at human muscarinic M5 receptor expressed in CHO cells assessed as minimal acetylcholine response by calcium mobilisation assay relative to control
Format: cell-based
Design: concentration or dose not given beside the values
condition-set: filed as antagonist
Give the value in % but do not write % after it.

Activity measured on O=C(Nc1ccc2scnc2c1)[C@@H]1CCN(S(=O)(=O)c2ccc3ncccc3c2)C1 = 3

Activity measured on O=C(Nc1ccc2scnc2c1)C1CCN(S(=O)(=O)c2ccc3c(c2)CCO3)C1 (stereo not drawn) = 2

Activity measured on C[C@H]1CN(S(=O)(=O)c2ccc3c(c2)CCO3)C[C@@H]1C(=O)Nc1ccc2scnc2c1 = 2

Activity measured on O=C(Nc1ccc2scnc2c1)[C@H]1CCN(S(=O)(=O)c2ccc3c(c2)CCO3)C1 = 3

Activity measured on O=C(Nc1ccc2scnc2c1)C1CN(S(=O)(=O)c2ccc3c(c2)CCO3)C1 = 2

Activity measured on O=C(Nc1ccc2scnc2c1)[C@@H]1CCN(S(=O)(=O)c2ccc3c(c2)OCO3)C1 = 3

Activity measured on O=C(Nc1ccc2scnc2c1)[C@@H]1CCN(S(=O)(=O)c2ccc3c(c2)CCC3)C1 = 31

Activity measured on C[C@@H]1CN(S(=O)(=O)c2ccc3c(c2)CCO3)C[C@@H]1C(=O)Nc1ccc2scnc2c1 = 3

Activity measured on Cc1ccc(S(=O)(=O)N2CC[C@@H](C(=O)Nc3ccc4scnc4c3)C2)cn1 = 41

Activity measured on O=C(Nc1ccc2scnc2c1)C12CC1CN(S(=O)(=O)c1ccc3c(c1)CCO3)C2 (racemic) = 2

Activity measured on O=C(Nc1ccc2scnc2c1)[C@@H]1CCN(S(=O)(=O)c2ccc3ncsc3c2)C1 = 2

Activity measured on Cc1nn(C)cc1S(=O)(=O)N1CC[C@@H](C(=O)Nc2ccc3scnc3c2)C1 = 6

Activity measured on O=C(Nc1ccc2scnc2c1)[C@@H]1CCN(S(=O)(=O)c2ccc3c(c2)CCO3)C1 = 2
